assayedTarget: Mu-type opioid receptor (Homo sapiens)
Sequence (P35372 whole entry): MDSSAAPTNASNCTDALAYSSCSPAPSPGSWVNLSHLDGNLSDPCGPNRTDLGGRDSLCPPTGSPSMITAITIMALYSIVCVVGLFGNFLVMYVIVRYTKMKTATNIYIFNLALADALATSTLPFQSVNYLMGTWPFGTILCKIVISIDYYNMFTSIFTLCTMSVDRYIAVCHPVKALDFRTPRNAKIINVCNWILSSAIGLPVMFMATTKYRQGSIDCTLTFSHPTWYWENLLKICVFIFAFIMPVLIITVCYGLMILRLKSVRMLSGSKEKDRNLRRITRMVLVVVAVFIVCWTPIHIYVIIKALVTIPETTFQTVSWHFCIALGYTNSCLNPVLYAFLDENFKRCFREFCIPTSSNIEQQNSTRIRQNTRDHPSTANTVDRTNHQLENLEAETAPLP
experimentDescription: Compound was tested for the binding affinity against opioid receptor mu by using [3H]naloxone as radioligand
endpointName: IC50

INPUT: For the record CC(C(O)c1ccc(O)cc1)N1CCC(Cc2ccccc2)CC1 (stereo unspecified) , what value of IC50 is listed for Mu-type opioid receptor (Homo sapiens)?
OUTPUT: > 1000 nM

----------
assayedTarget: D(2) dopamine receptor (Homo sapiens, UniProt P14416)
Sequence (P14416 whole entry): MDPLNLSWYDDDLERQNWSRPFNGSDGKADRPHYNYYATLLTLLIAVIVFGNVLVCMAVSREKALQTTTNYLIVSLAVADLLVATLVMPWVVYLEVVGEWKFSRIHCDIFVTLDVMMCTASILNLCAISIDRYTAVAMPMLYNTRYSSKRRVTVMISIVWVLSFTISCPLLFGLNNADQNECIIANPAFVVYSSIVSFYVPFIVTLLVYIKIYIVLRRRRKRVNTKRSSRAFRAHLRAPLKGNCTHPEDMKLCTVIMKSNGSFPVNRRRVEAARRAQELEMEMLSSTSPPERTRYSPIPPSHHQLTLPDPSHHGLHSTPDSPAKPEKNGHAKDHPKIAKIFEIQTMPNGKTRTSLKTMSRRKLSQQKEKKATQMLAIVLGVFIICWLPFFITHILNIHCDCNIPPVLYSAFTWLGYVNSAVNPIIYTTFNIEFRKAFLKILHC
experimentDescription: Compound was tested for the binding affinity against dopamine receptor D2 by using [3H]spiperone as radioligand
pIC50: −log10 of the molar value.
endpointName: pIC50

INPUT: Query (compound): CC(C(O)c1ccc(O)cc1)N1CCC(Cc2ccccc2)CC1 (stereo unspecified) [IFENPRODIL] ; field requested: pIC50
OUTPUT: < 6.00
